system: B16-F10; assay: Cytotoxicity against mouse B16-F10 cells assessed as reduction in cell viability measured after 72 hrs by MTT assay; assay type: functional, cell-based; conditions: B16-F10, 72 h
// classify: if (IC50 < 80 µM) Y else N

Use the examples below as a reference point.
compound_string=Cc1c(NC(=O)Cn2cc(CSc3nc4cc(OC(F)F)ccc4[nH]3)nn2)cccc1[N+](=O)[O-] class_assignment=N
compound_string=FC(F)Oc1ccc2[nH]c(SCc3cn(-c4cccc(Cl)c4Cl)nn3)nc2c1 class_assignment=N

# strict comparison: is reported IC50 < 80 µM? input = O=C(Cn1cc(CSc2nc3cc(OC(F)F)ccc3[nH]2)nn1)NC1CCCCC1
N
